# TARGET_DESC: F protein of human metapneumovirus strain JPS02-76 (type B1), on infectious virus (human metapneumovirus, strain JPS02-76 …, UniProt Q6WB98 19-539)
# EXPERIMENT: cell-based or functional assay
# if measured IC90, cell-to-cell spread inhibitory activity (LLC-MK2 cells stably expressing TMPRSS2) < 0.07 µg/mL: rule met  # else: rule not met

BINDER	GROUP_LABEL
EV046147 (antibody, human IgG1, lambda, V domains shown) VH: QVQLVQSGAEVKKPGASVKVSCKASGYTFSVYGISWVRQAPGHGLEWMGWISAYNGDRGYAQKVQGRITMTTDTSASTAYMELRSLTSDDTAVYYCATTSSGVPGIYWGQGSLVTVSS VL: SYALVQPPSVSVSPGQTARITCFGPALPKKYAYWYQHKSGQAPMLVIYEDTKRPSGIPQRFSGSTSGATATLTIRGAQVEDEADYYCYSTDSSGHERVFGGGTKLTVLG	rule not met
EV046142 (antibody, human IgG1, lambda, V domains shown) VH: QVQLVQSGAEVKKPGSSVRVSCKASGGTFSTYGINWVRQARGQGLEWMGTVIPTFEKTYYAQGFQGRVTIAADGSKNTVYMELRRLTSEDSAIYFCTRFFTPYCSGGSCYLDLWGPGTLVTVSS VL: QSVLTQPPSVSGAPGQSVTISCAGSSSNIGAGYDVHWYQHLPGTAPRLLIYSNTNRPSGVPDRFSGSKSGASASLAITGLQAEDEADYYCQSYDSGVVFGGGTKLTVLR	rule met
EV046150 (antibody, human IgG1, kappa, V domains shown) VH: RVQLVQSGAEVKKPGSSVRVSCKASGGTFSNYSISWVRQVPGQGLEWMGRIIPILPLSSYPQQFQGRVAITADKSSTTAYMELSSLRIEDTAIYYCARDALRPEGGYYYYYFDVWGTGTTVTVSS VL: EIELTQSPGTLSLSPGERATLSCRANQIIGDTSLAWYQQKPGQAPRLLIFGASSRATGIPDRFSGSGFGSDFTLTITSLEPEDFAVYYCQQYGSSPTFGQGTKVEIKR	rule met
EV046116 (antibody, human IgG1, kappa, V domains shown) VH: QVQLQESGPGLVKPSETLSLTCTVSGGSISRDYWSFIRQPAGKGLEWIGRIYHNGDTNYNPSLKSRVTMSQDTSKNQFFLRLRHVTAADTAVYYCAREGSAGTFGQADWGQGTLVIVYS VL: EIVMTQSPATLSVSPGERATLSCRASQSISNNLAWYQQKPGQAPRLLIYGASTRATGIPARFSGGGSGTEFTLTISSLQSEDFAVYYCQQYENWLLYTFGQGTKLEIKR	rule not met
EV046141 (antibody, human IgG1, lambda, V domains shown) VH: QVQLVQSGAEVKKPGASVKVSCKASGYTFADYYIHWLRQAPGQGLEWLGRINPSNSRTTYPQKFQGRVTVTRDTSTSTVYMELSSLRSADTAVYYCARDGLRMGYYYMDVWGKGTTVTVSS VL: QSVLTQPPSVSGAPGQRVTISCTGSSSNIGAGYDVHWYQQIPGTAPKLLIFGNYNRPSGVPDRFSASKSGTSASLAITGLQAEDEAHYYCQSYDTTLDGAVFGGGTKLTVLG	rule not met
EV046120 (antibody, human IgG1, lambda, V domains shown) VH: EVQLVESGGGLVKPGGSLRLSCAASGFTFSSYSMNWVRQAPGKGLEWVSSISSSSSYIYYADSLKGRFTVSRDNAKKSLYLQMNSLRAEDTAVYYCARVDYGTNSEVGRFDPWGQGTLVTVSS VL: QSVLTQPPSVSGTPGQRVTISCTGSSSNIGAGYAVHWYQQLPGTAPKLLIYDSINRPSGVPDRFSGSKSGTSASLAITGLQTEDEADYYCHSYDRSLSGSVFGGGTKLTVLG	rule met
EV046135 (antibody, human IgG1, lambda, V domains shown) VH: QEQLVESGGDLVKPGGSLRITCAASGFTLSGYALVWVRQAPGRGLEWIADITASSTYINYAASVKGRFTISRDNAQSSLFLQMSSLRADDTGVYFCARLPHLPGFFDLWGRGTLVSVSS VL: QSVLTQPPSVSGAPGQRVTISCTGNSSNIGAGYDVNWYQHLPGTAPKLLISVNTNRPSGVPDRFSGSMSGTSASLAITGLQAEDEADYYCQSYDRRLSGYVFGTGTKVTVLG	rule not met

Where these numbers come from: patent US20150322137A1
